- Test name: Protective index, ratio of TD50 for acute neurotoxicity in albino Swiss mouse to ED50 for anticonvulsant activity in albino Swiss mouse by subcutaneous pentylenetetrazole seizure test
- Format: toxicity, organism-based
- Stated conditions: in vivo, read-out: Ratio TD50/ED50
Property measured: selectivity ratio
# answer = number (no unit)

Below: 3 molecules and their reported selectivity ratio.
Q. State its selectivity ratio for this molecule: CC(C(=O)Nc1ccccc1)N1C(=O)CCC1=O (racemic)
A. 4.4

Q. State its selectivity ratio for this molecule: CC1CC(=O)N(C(C)C(=O)Nc2cccc(Cl)c2)C1=O (stereo not given)
A. 4.8

Q. State its selectivity ratio for this molecule: CCC1(C)CC(=O)NC1=O (stereo not given) [ETHOSUXIMIDE]
A. 4.9

Okay, now this molecule:
Q. State its selectivity ratio for this molecule: CCC(C(=O)Nc1ccccc1)N1C(=O)CCC1=O (stereo not given)
A. 5.3

----------
- Test name: Protective index, ratio of TD50 for acute neurotoxicity in albino Swiss mouse to ED50 for anticonvulsant activity in albino Swiss mouse by 6Hz psychomotor seizure test
- Assay type: toxicity, organism-based
- Stated conditions: in vivo, read-out: Ratio TD50/ED50
Property measured: selectivity ratio
# answer = number (no unit)

Below: 4 compounds and their reported selectivity ratio.
Q. State its selectivity ratio for this compound: CC(C(=O)Nc1ccccc1)N1C(=O)CCC1=O (racemic)
A. 7.6

Q. State its selectivity ratio for this compound: CCC(C(=O)Nc1cccc(F)c1)N1C(=O)CCC1=O (configuration not stated)
A. 8.4

Q. State its selectivity ratio for this compound: CCC(C(=O)Nc1ccccc1)N1C(=O)CCC1=O (configuration not stated)
A. 5.7

Q. State its selectivity ratio for this compound: CC1CC(=O)N(C(C)C(=O)Nc2cccc(Cl)c2)C1=O (configuration not stated)
A. 3.2

Okay, now this compound:
Q. State its selectivity ratio for this compound: COC[C@@H](NC(C)=O)C(=O)NCc1ccccc1 [LACOSAMIDE]
A. 5.3

----------
- Test system: Mus musculus
- Test name: Anticonvulsant activity in albino Swiss mouse assessed as protection against maximal electroshock-induced seizures pretreated for 0.5 hrs at 100 mg/kg, ip by maximal electroshock seizure test
- Type: functional
Active and inactive are the calls of the source. The calls are words filed in the database; no cut-off is given here.
Property measured: Activity

Q. State its Activity for this molecule: CCC(C(=O)Nc1ccccc1)N1C(=O)CCC1=O (configuration not stated)
A. 75%

Q. State its Activity for this molecule: CCC(C(=O)Nc1ccc(Cl)cc1)N1C(=O)CCC1=O (configuration not stated)
A. inactive

Q. State its Activity for this molecule: CCC(C(=O)Nc1ccc(C(F)(F)F)cc1)N1C(=O)CCC1=O (configuration not stated)
A. inactive

Q. State its Activity for this molecule: CC1CC(=O)N(C(C)C(=O)Nc2cccc(Cl)c2)C1=O (configuration not stated)
A. 75%

Q. State its Activity for this molecule: CCC(C(=O)Nc1cccc(Cl)c1)N1C(=O)CCC1=O (configuration not stated)
A. 75%

Q. State its Activity for this molecule: CC(C(=O)Nc1ccc(F)cc1)N1C(=O)CCC1=O (configuration not stated)
A. inactive

Q. State its Activity for this molecule: CCC(C(=O)Nc1cccc(F)c1)N1C(=O)CCC1=O (configuration not stated)
A. 75%

Q. State its Activity for this molecule: CC1CC(=O)N(C(C)C(=O)Nc2ccc(F)cc2)C1=O (configuration not stated)
A. inactive

Continuing:
Q. State its Activity for this molecule: CCC(C(=O)Nc1ccc(F)cc1)N1C(=O)CCC1=O (configuration not stated)
A. inactive

Q. State its Activity for this molecule: CC(C(=O)Nc1cccc(Cl)c1)N1C(=O)CCC1=O (configuration not stated)
A. 75%

Q. State its Activity for this molecule: CC(C(=O)Nc1ccccc1)N1C(=O)CCC1=O (racemic)
A. 50%

Q. State its Activity for this molecule: CCC(C(=O)Nc1cccc(C(F)(F)F)c1)N1C(=O)CCC1=O (configuration not stated)
A. inactive

----------
- Test name: Acute neurotoxicity in albino Swiss mouse pretreated for 2 hrs by rotorod test
- Assay type: toxicity, organism-based
- Stated conditions: in vivo
# TD50 at 2 h listing for each entry below

Below: 5 compounds and their reported TD50 at 2 h.
Q. State its TD50 at 2 h for this compound: CC1CC(=O)N(C(C)C(=O)Nc2cccc(Cl)c2)C1=O (configuration not stated)
A. 279 mg/kg

Q. State its TD50 at 2 h for this compound: CCC(C(=O)Nc1cccc(F)c1)N1C(=O)CCC1=O (configuration not stated)
A. 346 mg/kg

Q. State its TD50 at 2 h for this compound: CCC(C(=O)Nc1ccccc1)N1C(=O)CCC1=O (configuration not stated)
A. 398 mg/kg

Q. State its TD50 at 2 h for this compound: CC[C@@H](C(N)=O)N1CCCC1=O
A. > 500 mg/kg

Q. State its TD50 at 2 h for this compound: CC(C(=O)Nc1cccc(Cl)c1)N1C(=O)CCC1=O (configuration not stated)
A. > 500 mg/kg

Continuing:
Q. State its TD50 at 2 h for this compound: CC(C(=O)Nc1ccccc1)N1C(=O)CCC1=O (racemic)
A. 336 mg/kg

Q. State its TD50 at 2 h for this compound: CCC(C(=O)Nc1cccc(Cl)c1)N1C(=O)CCC1=O (configuration not stated)
A. > 500 mg/kg

----------
# selectivity ratio listing for each entry below
- Test name: Protective index, ratio of TD50 for acute neurotoxicity in albino Swiss mouse to ED50 for anticonvulsant activity in albino Swiss mouse by maximal electroshock seizure test
- Format: toxicity, organism-based
- Stated conditions: in vivo, read-out: Ratio TD50/ED50
# answer = number (no unit)

Below: 3 compounds and their reported selectivity ratio.
Q. State its selectivity ratio for this compound: CC1CC(=O)N(C(C)C(=O)Nc2cccc(Cl)c2)C1=O (stereo not given)
A. 3.5

Q. State its selectivity ratio for this compound: CC(C(=O)Nc1ccccc1)N1C(=O)CCC1=O (racemic)
A. 3.5

Q. State its selectivity ratio for this compound: CCC(C(=O)Nc1ccccc1)N1C(=O)CCC1=O (stereo not given)
A. 3.4

Okay, now this compound:
Q. State its selectivity ratio for this compound: CCC(C(=O)Nc1cccc(F)c1)N1C(=O)CCC1=O (stereo not given)
A. 2.9

----------
- Tested on: Mus musculus
- Test name: Acute neurotoxicity in albino Swiss mouse pretreated for 2 hrs at 100 mg/kg, ip by rotorod test
- Format: toxicity, organism-based
- Stated conditions: in vivo
Property measured: Activity

Q. State its Activity for this compound: CCC(C(=O)Nc1ccccc1)N1C(=O)CCC1=O (centres undefined)
A. Non-toxic

Q. State its Activity for this compound: CC1CC(=O)N(C(C)C(=O)Nc2cccc(Cl)c2)C1=O (centres undefined)
A. Non-toxic

Q. State its Activity for this compound: CCC(C(=O)Nc1cccc(F)c1)N1C(=O)CCC1=O (centres undefined)
A. Non-toxic

Q. State its Activity for this compound: CCC(C(=O)Nc1cccc(Cl)c1)N1C(=O)CCC1=O (centres undefined)
A. Non-toxic

----------
- Test system: Mus musculus
- Test name: Anticonvulsant activity in albino Swiss mouse assessed as reduction in clonic seizures pretreated for 0.5 hrs at 100 mg/kg, ip measured after 30 mins by subcutaneous pentylenetetrazole seizure test
- Assay type: functional
- Parameters: scale not given: the % may be the effect or the level left
Property measured: Activity

Below: 3 compounds and their reported Activity.
Q. State its Activity for this compound: CCC(C(=O)Nc1cccc(Cl)c1)N1C(=O)CCC1=O (stereo not given)
A. 50%

Q. State its Activity for this compound: CC1CC(=O)N(C(C)C(=O)Nc2cccc(Cl)c2)C1=O (stereo not given)
A. 75%

Q. State its Activity for this compound: CC(C(=O)Nc1cccc(Cl)c1)N1C(=O)CCC1=O (stereo not given)
A. 75%

Okay, now this compound:
Q. State its Activity for this compound: CCC(C(=O)Nc1ccccc1)N1C(=O)CCC1=O (stereo not given)
A. 75%

All values here come from ChEMBL document CHEMBL3808333.
